Assay: In vitro transfection of cells with eGFP-mRNA lipid nanoparticle (LNP preparation), fluorescence imaging and flow cytometry
Assay type: cell-based, mouse
Conditions: mouse, dc2.4 cells, 200 ng of mRNA per well, after 24 hours; read-out: Cell viability, %
Give viability at 24 h for every item shown.

Please review the entries below; each comes with its answer.
stdin: Which viability at 24 h is reported for this molecule? "CCCCC/C=C\C/C=C\CCCCCCCCOC(=O)CCCN(CCO)CCCN(CCCC(=O)OCCCCCCCC/C=C\C/C=C\CCCCC)CCCC(=O)OCCCCCCCC/C=C\C/C=C\CCCCC"
stdout: 87.3%

stdin: Which viability at 24 h is reported for this molecule? "CCCCCCCCCCCOC(=O)/C=C/CN(C/C=C/C(=O)OCCCCCCCCCCC)CCCN(C/C=C/C(=O)OCCCCCCCCCCC)CCCO"
stdout: 93.9%

For the next question, use this molecule.
stdin: Which viability at 24 h is reported for this molecule? "CCCCCCCCCCOC(=O)CCCN(CCCO)CCCCN(CCCC(=O)OCCCCCCCCCC)CCCC(=O)OCCCCCCCCCC"
stdout: 93%

----------
Assay: Encapsulation efficiency of the lipid nanoparticle (eGFP mRNA) by Ribogreen method
Format: physicochemical
Details: LNP encapsulating eGFP mRNA, ionizable lipid/DOPE/cholesterol/DMG-PEG2000 50/10/48.25/1.25 mol%, N/P 12
# strict inequality: Encapsulation rate, % < 90% yields true (1), everything else yields false (0)

stdin: Is 90% strictly greater than the molecule's reported Encapsulation rate, %? molecule: "CCCCCCCCCCCCCCOC(=O)CCCCCN(CCO)CCCN(CCCCCC(=O)OCCCCCCCCCCCCCC)CCCCCC(=O)OCCCCCCCCCCCCCC"
stdout: false (0)

stdin: Is 90% strictly greater than the molecule's reported Encapsulation rate, %? molecule: "CCCCCCCCCCCCCOC(=O)CCCCCCCN(CCCO)CCCN(CCCCCCCC(=O)OCCCCCCCCCCCCC)CCCCCCCC(=O)OCCCCCCCCCCCCC"
stdout: false (0)

stdin: Is 90% strictly greater than the molecule's reported Encapsulation rate, %? molecule: "CCCCCCCCCCCOC(=O)CCCCCCCN(CCO)CCCN(CCCCCCCC(=O)OCCCCCCCCCCC)CCCCCCCC(=O)OCCCCCCCCCCC"
stdout: false (0)

More entries:
stdin: Is 90% strictly greater than the molecule's reported Encapsulation rate, %? molecule: "CCCCCC/C=C\COC(=O)CCCN(CCO)CCCN(CCCC(=O)OC/C=C\CCCCCC)CCCC(=O)OC/C=C\CCCCCC"
stdout: true (1)

stdin: Is 90% strictly greater than the molecule's reported Encapsulation rate, %? molecule: "CCCCCCCCCCOC(=O)CCCN(CCO)CCCN(CCCC(=O)OCCCCCCCCCC)CCCC(=O)OCCCCCCCCCC"
stdout: false (0)

stdin: Is 90% strictly greater than the molecule's reported Encapsulation rate, %? molecule: CC/C=C\COC(=O)CCCCCCCN(CCO)CCCN(CCCCCCCC(=O)OC/C=C\CC)CCCCCCCC(=O)OC/C=C\CC [Example 97]
stdout: true (1)

stdin: Is 90% strictly greater than the molecule's reported Encapsulation rate, %? molecule: "CCCCCCCCCCCCOC(=O)CCCCCCN(CCO)CCCN(CCCCCCC(=O)OCCCCCCCCCCCC)CCCCCCC(=O)OCCCCCCCCCCCC"
stdout: false (0)

stdin: Is 90% strictly greater than the molecule's reported Encapsulation rate, %? molecule: "CCCCCCCCCCCCCCOC(=O)CCCCCCCN(CCCO)CCCN(CCCCCCCC(=O)OCCCCCCCCCCCCCC)CCCCCCCC(=O)OCCCCCCCCCCCCCC"
stdout: false (0)

stdin: Is 90% strictly greater than the molecule's reported Encapsulation rate, %? molecule: "CCCCCCCCCCCCCOC(=O)CCCCN(CCCCO)CCCN(CCCCC(=O)OCCCCCCCCCCCCC)CCCCC(=O)OCCCCCCCCCCCCC"
stdout: false (0)

stdin: Is 90% strictly greater than the molecule's reported Encapsulation rate, %? molecule: "CCCCCCCCCCCCCCOC(=O)CCCCCCN(CCCCO)CCCN(CCCCCCC(=O)OCCCCCCCCCCCCCC)CCCCCCC(=O)OCCCCCCCCCCCCCC"
stdout: false (0)
